Measured inhibition values are reported for all entries that follow.
# target-or-test-system: Adenosine receptor A2a (Rattus norvegicus) (UniProt P30543)
# Sequence (P30543 whole entry): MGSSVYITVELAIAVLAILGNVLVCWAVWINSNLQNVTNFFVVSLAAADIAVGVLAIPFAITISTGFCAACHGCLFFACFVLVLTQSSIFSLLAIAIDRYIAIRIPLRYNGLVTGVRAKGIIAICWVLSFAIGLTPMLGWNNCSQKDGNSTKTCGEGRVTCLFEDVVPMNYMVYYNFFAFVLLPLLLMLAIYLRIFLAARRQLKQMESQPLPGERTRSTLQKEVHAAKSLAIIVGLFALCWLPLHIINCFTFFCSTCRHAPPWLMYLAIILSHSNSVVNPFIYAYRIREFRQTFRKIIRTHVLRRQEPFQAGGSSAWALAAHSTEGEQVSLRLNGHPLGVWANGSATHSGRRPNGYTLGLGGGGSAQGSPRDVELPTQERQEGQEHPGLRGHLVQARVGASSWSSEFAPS
# assay-comment: Percent inhibition of [3H]CGS-21680 binding to Adenosine A2A receptor rat striatal membranes
# Format: cell membranes
# condition-description: Membrane, concentration not given here
Give a bare numeral; the unit % is implied.

Answer with the recorded inhibition of CC(C)C(Sc1nc(S)c2cnn(-c3ccccc3)c2n1)C(N)=O (centres undefined) only. 44

---

# target-or-test-system: Adenosine receptor A2a (Rattus norvegicus) (UniProt P30543)
# assay-comment: Percent inhibition of [3H]CGS-21680 binding to Adenosine A2A receptor rat striatal membranes
# Format: cell membranes
# condition-description: Membrane, concentration not given here
Measured inhibition values are reported for all entries that follow.
Give a bare numeral; the unit % is implied.

>>> test_result("CSc1nc(SC(C(N)=O)C(C)C)nc2c1cnn2-c1ccccc1 (stereo not drawn)")
37
>>> test_result("CCCCC(Sc1nc(SC)c2cnn(-c3ccccc3)c2n1)C(N)=O (stereo not drawn)")
12

# next molecule below
Answer with the recorded inhibition of CCCCC(Sc1nc(S)c2cnn(-c3ccccc3)c2n1)C(N)=O (stereo not drawn) only. 52
